# Tested on: Wolbachia pipientis
# experiment: Anti-Wolbachia Cell-Based Screen
# Format: functional
# Design: scale not given: in the data most compounds retested in dose-response had high values
# assay.conditions: 5 µM
Hit rate of the full screen: of about 48,000 compounds, about 13,000 (27%) showed an effect of 50% or more. The list shows a part of the results.
value.kind: Percent Effect (%)
Report the figure in % without appending any unit label.

Use these answered entries as a reference point.
- compound: "CN1CCOC[C@H]1c1nc(-c2cccc(F)c2)c[nH]1"
  Percent Effect, %: 6.119
- compound: "Cc1ncsc1CCN(C)Cc1ccc(Br)o1"
  Percent Effect, %: 8.382
- compound: "COc1ccc(C(=O)NCCCC2(C3OCCO3)CCOCC2)cc1"
  Percent Effect, %: 0.9631
- compound: "COc1cccc(N2CCC(N3C[C@@H](NC(C)=O)[C@H](C(C)C)C3)CC2)c1"
  Percent Effect, %: 4.736
- compound: "Cc1nc(-c2cccc(N3CCC(N[C@@H]4CCOC4)CC3)c2)cs1"
  Percent Effect, %: 61.49

Now let's try a different one.
INPUT: Record request: Percent Effect value, item Cc1nn(C)c(Cl)c1C1CCCN1c1ncnc2c1CCC2 (stereo unspecified)
OUTPUT: 16.41

---

Entries annotated with measured Percent Effect
# System: Wolbachia pipientis
# experiment: Anti-Wolbachia Cell-Based Screen
# Format: functional
# Set-up: scale not given: in the data most compounds retested in dose-response had high values
# assay.conditions: 5 µM
About 13,000 (27%) of roughly 48,000 compounds showed an effect of 50% or more. Some of the results follow.
Numeric answer plus unit only.

- compound: "CC(c1ncc(-c2ccccc2)o1)N1CCN(C(=O)N(C)C)CC1 (stereo unspecified)"
  value.kind: "Percent Effect"
  result: "106.8%"
- compound: "O=C(c1ccccn1)N1CCC(Cc2cnc3[nH]ccc3c2)CC1"
  value.kind: "Percent Effect"
  result: "136.1%"
- compound: "NCC1Cn2nnc(-c3cccc(F)c3)c2CO1 (stereo unspecified)"
  value.kind: "Percent Effect"
  result: "-2.933%"
- compound: "O=C(CCC1CCN(C(=O)c2cnco2)CC1)NCc1cccc(Cl)c1"
  value.kind: "Percent Effect"
  result: "11.71%"
- compound: "CC(c1ncc(C(C)(C)C)o1)N1CCN(Cc2ccco2)CC1 (stereo unspecified)"
  value.kind: "Percent Effect"
  result: "19.54%"
- compound: "O=C(NCCCn1cncn1)NCC(c1ccco1)N1CCCCC1 (stereo unspecified)"
  value.kind: "Percent Effect"
  result: "9.107%"
- compound: "Cc1ccc(-c2ncc(CN3CCN(C(=O)N(C)C)CC3)s2)o1"
  value.kind: "Percent Effect"
  result: "25.76%"
- compound: "Cc1cccc(C(=O)N2CCC(Cc3cnc4[nH]ccc4c3)CC2)n1"
  value.kind: "Percent Effect"
  result: "-6.998%"
- compound: "CCS(=O)(=O)N1CCN(C(C)c2ncc(-c3ccccc3)o2)CC1 (stereo unspecified)"
  value.kind: "Percent Effect"
  result: "106.9%"
- compound: "CCN1CCN(C(=O)NC(C)c2noc(-c3ccccc3)n2)CC1 (stereo unspecified)"
  value.kind: "Percent Effect"
  result: "0.3597%"

Now let's try a different one.
INPUT: Record request: Percent Effect value, item O=C(c1cnco1)N1CCC(Cc2ccc3ncccc3c2)CC1
OUTPUT: 111%

The reported measurements were obtained from ChEMBL document CHEMBL3988442.
